# Tested on: NCI-H522
# ASSAY_PROTOCOL: NCI tumour cell line growth inhibition, 48 h
Structures can show the parent of a compound that is named as a salt. The source made the active and inactive calls. Cut-off read from the data, not from the text of the source: active = GI50 up to about 1.1 µM and inactive = higher.
Please answer using one outcome listed in active, inactive

Reference set (5 entries):
| COMPOUND | TARGET_DESC | CAT |
| --- | --- | --- |
| COc1ccc(C(=O)C2CCC(C(=O)O)C2)cc1 (stereo unspecified) | NCI-H522 | inactive |
| N#CC1=C(S)N(C2OC(CO)C(O)C(O)C2O)C(c2ccccc2)=CC1c1cccs1 (stereo unspecified) | NCI-H522 | inactive |
| COc1ccc(C)cc1-c1cc(Sc2ccccc2)c(-c2cc(C)ccc2OC)o1 | NCI-H522 | inactive |
| O=c1[nH][nH]c(=O)n1Cc1cccc(Cn2c(=O)[nH][nH]c2=O)c1 | NCI-H522 | inactive |
| CC1(Sc2ccccc2)CN(Cc2ccccc2)C1=O (stereo unspecified) | NCI-H522 | inactive |

stdin: Hi, do you know how `[O-][n+]1ccccc1Sc1nc(Sc2cccc[n+]2[O-])nc(Sc2cccc[n+]2[O-])n1` came out in this test?
stdout: active

stdin: Hi, do you know how O=C(O)C1=C(C(=O)O)N(c2ccncc2)C(c2ccco2)=CC1c1ccccc1[N+](=O)[O-] (stereo unspecified) came out in this test?
stdout: inactive

stdin: Hi, do you know how CCCCOC(=O)C(NC(C(=O)OCCCC)c1cc(C(C)(C)C)c(O)c(C(C)(C)C)c1)c1cc(C(C)(C)C)c(O)c(C(C)(C)C)c1 (stereo unspecified) came out in this test?
stdout: inactive

stdin: Hi, do you know how CCOC(=O)CC1Nc2ccccc2C12CCc1c([nH]c3ccccc13)C2C(=O)OCC (stereo unspecified) came out in this test?
stdout: inactive

stdin: Hi, do you know how `CCSC1(SCC)CCN(/C=N/C(C)(C)C)C1` came out in this test?
stdout: inactive

stdin: Hi, do you know how `O=C(C(Cl)=C(Nc1ccccc1)Nc1ccccc1)C(Cl)Cl` came out in this test?
stdout: inactive

stdin: Hi, do you know how `COc1ccccc1Nc1nc(N)nc(N)c1N=O` came out in this test?
stdout: inactive

stdin: Hi, do you know how `Cc1ccc(/N=N/C(=N/NC(=O)c2cc(Cl)ccc2O)c2ccc(N(CCC#N)CCC#N)cc2C)cc1` came out in this test?
stdout: inactive

stdin: Hi, do you know how CN(C)CCOC(c1ccccc1)c1ccccc1 [DIPHENHYDRAMINE HYDROCHLORIDE] came out in this test?
stdout: inactive

stdin: Hi, do you know how `C/C([O-])=C(/c1nc(-c2ccc([N+](=O)[O-])o2)no1)[n+]1cc(C)ccc1C` came out in this test?
stdout: inactive

stdin: Hi, do you know how `CC1=NN=C(C)C1/N=N/c1ccc2[nH]c(C)nc2c1` came out in this test?
stdout: inactive

stdin: Hi, do you know how COC(=O)/C=C(/C=C1/C(C#N)=C(N)N(c2ccc(Cl)cc2)C1(C)/C(=C/C(=O)OC)C(=O)OC)C(=O)OC (stereo unspecified) came out in this test?
stdout: inactive
